- target of assay: full-length recombinant MrkA protein (Klebsiella pneumoniae)
- Sequence (P12267 23-202): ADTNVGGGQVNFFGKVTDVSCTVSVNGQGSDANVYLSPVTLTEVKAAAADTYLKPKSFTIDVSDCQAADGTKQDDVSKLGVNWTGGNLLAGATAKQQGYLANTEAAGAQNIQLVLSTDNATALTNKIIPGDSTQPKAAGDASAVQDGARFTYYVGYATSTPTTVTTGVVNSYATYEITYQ
- Assay type: binding
- details: ELISA 6; [MrkA] 25 nM
- Text: HPraGly is present before X1 in each peptide and Az4 follows X5 in each peptide.
Bridge positions count the residues as written; N and C are the ends. Square brackets hold non-standard residues; d marks the D form. Triazole bridges read from a SMILES are 1,4-linked. Peptide text beside a SMILES is read from it. * marks the point of attachment. Biotin = O=C1N[C@H]2[C@H](CS[C@H]2CCCCC(=O)*)N1; PEG10 = NCCOCCOCCOCCOCCOCCOCCOCCOCCOCCOCCC(=O)O; Lys(N3) = [N-]=[N+]=NCCCC[C@H](N)C(=O)O; Pra = C#CC[C@H](N)C(=O)O
assay endpoint: Relative affinity (ratio of ELISA signal versus cy(LLFFF))
Respond with the number and no other words.

Some entries whose results are on file:
{"molecule": "CC(C)C[C@@H]1NC(=O)[C@@H](NC(=O)CCOCCOCCOCCOCCOCCOCCOCCOCCOCCOCCNC(=O)CCCC[C@@H]2SC[C@@H]3NC(=O)N[C@@H]32)Cc2cn(nn2)CCCC[C@@H](C(N)=O)NC(=O)[C@H](Cc2ccccc2)NC(=O)[C@H](Cc2ccccc2)NC(=O)[C@H](CC(C)C)NC1=O [compound 21] ({Biotin-PEG10}-[Pra]LLFF[Lys(N3)]-NH2; triazole 1-6)", "observed": 0.14}
{"molecule": "CC(C)C[C@@H]1NC(=O)[C@H](Cc2c[nH]cn2)NC(=O)[C@@H](NC(=O)CCOCCOCCOCCOCCOCCOCCOCCOCCOCCOCCNC(=O)CCCC[C@@H]2SC[C@@H]3NC(=O)N[C@@H]32)Cc2cn(nn2)CCCC[C@@H](C(N)=O)NC(=O)[C@H](Cc2ccccc2)NC(=O)[C@H](Cc2ccccc2)NC(=O)[C@H](Cc2ccccc2)NC1=O [compound 19] ({Biotin-PEG10}-[Pra]HLFFF[Lys(N3)]-NH2; triazole 1-7)", "observed": 0.81}

Attention now turns to another entry.
Relative affinity (ratio of ELISA signal versus cy(LLFFF)) lookup needed for CC(C)C[C@@H]1NC(=O)[C@@H](NC(=O)CCOCCOCCOCCOCCOCCOCCOCCOCCOCCOCCNC(=O)CCCC[C@@H]2SC[C@@H]3NC(=O)N[C@@H]32)Cc2cn(nn2)CCCC[C@@H](C(N)=O)NC(=O)[C@H](Cc2ccccc2)NC(=O)[C@H](CC(C)C)NC1=O [compound 22] ({Biotin-PEG10}-[Pra]LLF[Lys(N3)]-NH2; triazole 1-5) , thanks. 0.09

###

- target of assay: full-length recombinant MrkA protein (Klebsiella pneumoniae)
- Assay type: binding
- details: ELISA 3; [MrkA] 50 nM
Bridge positions count the residues as written; N and C are the ends. Square brackets hold non-standard residues; d marks the D form. Triazole bridges read from a SMILES are 1,4-linked. Peptide text beside a SMILES is read from it. * marks the point of attachment. Biotin = O=C1N[C@H]2[C@H](CS[C@H]2CCCCC(=O)*)N1; PEG10 = NCCOCCOCCOCCOCCOCCOCCOCCOCCOCCOCCC(=O)O; Lys(N3) = [N-]=[N+]=NCCCC[C@H](N)C(=O)O; Orn(N3) = [N-]=[N+]=NCCC[C@H](N)C(=O)O; Phe(4-F) = N[C@@H](Cc1ccc(F)cc1)C(=O)O; Pra = C#CC[C@H](N)C(=O)O
assay endpoint: Relative affinity (ratio of ELISA signal versus cy(LLFFF))
Respond with the number and no other words.

{"molecule": "CC(C)C[C@@H]1NC(=O)[C@@H](NC(=O)CCOCCOCCOCCOCCOCCOCCOCCOCCOCCOCCNC(=O)CCCC[C@@H]2SC[C@@H]3NC(=O)N[C@@H]32)Cc2cn(nn2)CCC[C@@H](C(N)=O)NC(=O)[C@H](Cc2ccccc2)NC(=O)[C@H](Cc2ccccc2)NC(=O)[C@H](Cc2ccccc2)NC(=O)[C@H](CC(C)C)NC1=O [compound 10] ({Biotin-PEG10}-[Pra]LLFFF[Orn(N3)]-NH2; triazole 1-7)", "observed": 0.89}
{"molecule": "CC(C)C[C@@H]1NC(=O)[C@@H](NC(=O)CCOCCOCCOCCOCCOCCOCCOCCOCCOCCOCCNC(=O)CCCC[C@@H]2SC[C@@H]3NC(=O)N[C@@H]32)Cc2cn(nn2)CCCC[C@@H](C(N)=O)NC(=O)[C@H](Cc2ccc(F)cc2)NC(=O)[C@H](Cc2ccccc2)NC(=O)[C@H](Cc2ccccc2)NC(=O)[C@H](CC(C)C)NC1=O [compound 11] ({Biotin-PEG10}-[Pra]LLFF[Phe(4-F)][Lys(N3)]-NH2; triazole 1-7)", "observed": 0.88}

Relative affinity (ratio of ELISA signal versus cy(LLFFF)) lookup needed for CC(C)C[C@@H]1NC(=O)[C@@H](NC(=O)CCOCCOCCOCCOCCOCCOCCOCCOCCOCCOCCNC(=O)CCCC[C@@H]2SC[C@@H]3NC(=O)N[C@@H]32)Cc2cn(nn2)CCCC[C@@H](C(N)=O)NC(=O)[C@H](Cc2ccccc2)NC(=O)[C@H](Cc2ccccc2)NC(=O)[C@H](Cc2ccccc2)NC(=O)[C@H](CC(C)C)NC1=O [Ref. compound] ({Biotin-PEG10}-[Pra]LLFFF[Lys(N3)]-NH2; triazole 1-7) , thanks. 1.00

Item: CC(C)C[C@@H]1NC(=O)[C@@H](NC(=O)CCOCCOCCOCCOCCOCCOCCOCCOCCOCCOCCNC(=O)CCCC[C@@H]2SC[C@@H]3NC(=O)N[C@@H]32)Cc2cn(nn2)CCCC[C@@H](C(N)=O)NC(=O)[C@H](Cc2ccccc2)NC(=O)[C@H](Cc2ccccc2)NC(=O)[C@H](Cc2ccccc2)NC1=O [compound 8] ({Biotin-PEG10}-[Pra]LFFF[Lys(N3)]-NH2; triazole 1-6) 0.46
